Substrate: O=C1c2c(O)cc(O)cc2O[C@H](c2cc(O)c(O)c(O)c2)[C@H]1O
Experiment: purified protein
Type: biochemical, Camellia sinensis
Settings: apparent Km, NADPH, 0.1 M potassium phosphate pH 7.0, 30 °C
Measure name: Km (µM)
Answer with a number only, understood to be in µM.

Example cases with answers are listed next.
Protein	Reported
CsDFRb1 (Camellia sinensis; N120S) (protein, only point mutants active) MEVVEVKNGYGGGGGTTVCVTGASGFIGSWLVMRLLQRGYYVRATVRDPDNTDKVKHLLDLPNATTHLSLWKADLDEDGSFDDAIQGCHGVFHVATPMNFVFVMDPENEYIKPTVDGVLSVMRSCCKAKTVKRIIYTSTMATIEYQQKPPSQYDESIWTDVDFCRARKMFAWMYLVAKTEAEKAAWKFAEDNGPDLITVHPCSVIGPFITPYKPPCTSMALALITKNKAFYPMLTQGHAVHVDDVCNAHIYLFEHPQAKGRYICSSHSFTILDLASSLSKKYPEYNIQTKFEDIDESLKPIPCPSKKLLDLGFKFKYNSDECDAGDLCAEAIEACKEKGQMPSL	96.58
CsDFRc (Camellia sinensis) (protein) MEDTKSKLQEGSAVESLTTTTYCVTGATGYIGSWLVKSLLQRGYRVHATVRNQAKTLHLLPLWGGGDRLRVFRADLHKEGSFNEAVQGCSGVFHVAASMEFEVPAKEDIDSYVRANVIEPAINGTLNLLKSCLKTPSVRRVVFTSSISTMTAKDSAGKWRSVVDESCQNPIDRVWKTKTGAWVYVLSKLLTEEAAFQFANENSIDLVSVITTTVAGPFLTSTVPTSVQVLLSPITGDSKFSRILSAVNSRMGSIALVHIEDICSAHIFLMEHDGAEGRYICSAHSSVISQLVDHLAKEHPFSNMQRLVEEEHGSVPSEISSKKLRDLGFNFKFGLEDIIHHTVSSCVDCGFLCPTVN	105.56
CsDFRb1 (Camellia sinensis; C126T) (protein, only point mutants active) MEVVEVKNGYGGGGGTTVCVTGASGFIGSWLVMRLLQRGYYVRATVRDPDNTDKVKHLLDLPNATTHLSLWKADLDEDGSFDDAIQGCHGVFHVATPMNFVFVMDPENEYIKPTVDGVLNVMRSCTKAKTVKRIIYTSTMATIEYQQKPPSQYDESIWTDVDFCRARKMFAWMYLVAKTEAEKAAWKFAEDNGPDLITVHPCSVIGPFITPYKPPCTSMALALITKNKAFYPMLTQGHAVHVDDVCNAHIYLFEHPQAKGRYICSSHSFTILDLASSLSKKYPEYNIQTKFEDIDESLKPIPCPSKKLLDLGFKFKYNSDECDAGDLCAEAIEACKEKGQMPSL	47.75

Here is the next item to consider.
get_value(item= CsDFRa (Camellia sinensis) (protein) MKDSVASATASAPGTVCVTGAAGFIGSWLVMRLLERGYIVRATVRDPANLKKVKHLLDLPKADTNLTLWKADLNEEGSFDEAIEGCSGVFHVATPMDFESKDPENEVIKPTINGVLSIIRSCTKAKTVKRLVFTSSAGTVNVQEHQQPVFDENNWSDLDFINKKKMTGWMYFVSKTLAEKAAWEAAKENNIDFISIIPTLVVGPFIMPTFPPSLITALSPITRNEGHYSIIKQGQFVHLDDLCESHIFLYERPQAEGRYICSSHDATIHDLAKLMREKWPEYNVPTEFKGIDKDLPVVSFSSKKLIGMGFEFKYSLEDMFRGAIDTCREKGLLPHSFAENPVNGNKV , readout=Km) returns 58.44

Source listed as paper PMC9250652.
